- protocol-notes: label from the status in PepcDB records
assay-readout: protein production

Some solved entries appear below for comparison.
[
  {
    "sequence-content": "MRKILEKVRRNRTYSFGKDLYDRTMRDDVAGLAAQLAYFFLLAIFPGLVFLITLLGFIDLQTESVLNLLEPYVPEDAMSLIEVNVDKVVNEQNGGLLSFGLLSMLWFASNGVNAVMNAFNRAYDVTETRSFIKTRALSIVFTLAIIFMIVFALIVPVFGQVIGAAVFKAIGLSDSFSYVWSITRLVASFFVLFALFSFLYTFAPDRKLKRREVISGATFATVGWIVVSYSFAYYVDKFANYANTYGGLGGIIILMLWFYLTGWVILLGGEINGLLHHYRTGDNNSRNEK",
    "protein production": "failed"
  },
  {
    "sequence-content": "DQPLAVAGDELAIADQTIDALSAQVEKLRHQQDLSLKQAELLTELSRANLSDIDEIQGVIQKNLDQARALFGCERLVFYYHPRYQPEAMVVQALDLTTQGLIDSKDPHPWGQEDMPSQIVAINDTSGASISNPHRQWLEQHQVKASLTVPLHRDNYPLGLLMAHHCQRPHQWEMRERQFLQQLTEELQTTLDRANLIQERNESAQQAQILKELTLKISAAIN",
    "protein production": "failed"
  },
  {
    "sequence-content": "MSTKDKYDILNLCFYEKEAIMANVLFLVGSLRDGSFNHQMAKKAEAFLTDKAQVSYIDLAKIPLFNQDIETPILPEIAELRAQVDAADAIWIFSPVYNYAIPGIVKNALDWLSRSLDLSNPKGPSILQDKITTVSAVANSGHDHLFKDFQHLLPFIRTQIAGEFTGSTINPEAWGTGVLELSDETLTKLEQQVADLLAAIQ",
    "protein production": "failed"
  },
  {
    "sequence-content": "TGQGWMLNLRREKFQDPKVREALNLMFNFEWSNQTLFYGLYTRVDSFWENSYLEAEGAPSEAEAALLKPLVDEGLLPASILTEPPVSPPVSGERQLDRRNLRAASKLLDEAGWTVGSDGMRRNAKGEVLRVEFLNDSQTFDRVISPFVENLRALGVDALMTRVDNAQMESRTRPPSYDFDITTGNARTNYISGAELKQYYGSETADISAFNIMGLKDKAVDRMIEVVLAAKTSEELEVATKALDRVLRLQRFWVPQWYKA",
    "protein production": "failed"
  },
  {
    "sequence-content": "MYNREGIQGHILSFIDFSKASTFLDIGCGKGNDLIEISNRTCKEAKLYGVDVKANLIEFAKMQTEGDCRFTFNVYDVEDGLKFEDESIDVIISCNVLECIKNKSKLLHEIHRVLKPDGKIIMAHFDWDTQIFNAFDKNLYRKLIHTYSDWQQPWMNDCDAWMGRRISGVFNETGLFSGNIFTYVVTESEYKEGFRGYSLINEEFKALVEKGIIKNTEFELFKDQIIQLEKTGHYFYSVNLYTYVGQKK",
    "protein production": "failed"
  }
]

# batch size: 8; output protein production per entry
1. MLLILAILPIVVTVGLGVFAGLRHQFAPTTSDILIQLVMHYALPLSLFGGILSLKRATIIQNSSVALWLALGMLGGMVIVIVSQCCFHQQLETGTLRALVIASPSIPFMGVSVLLVVFGKISVLLVALGGLYMNLVQVPVSVLLLTLAGGSTPEQRWRAGWQKLCRASRQPVVWAPISAFLLNLAGLRLPSAWLTNFTELGQAAGGVALFALGLLLTTRPWRLTRMVVLNVLLKNLGLPVLIWGIMASLGVSLSNQQLVVLTLAIPTATIATMLAVQNHLAPDEYVATQMLSTVIAPLTMGFLMWGLQLV
2. MSSLNLSPAAVSELVFSQTGLALISLLLTLFCYFAAKILYQRHRVWWLAPIVLAPVVITLLVFNLDIPLPTYFEYTHWLMAMLAPATIAFALPIYRERKLIRQYPLTIAFGVIAGLLLGMVSSWLLVKFVPLPVELSKSLLVRSVSTPFAMEATGAFGGVPELTAMMVLITGIIGMLVCEPLFKLMHIRTSLGKGVALGASAHGAGAAKASELGQQEGVIASLTMIFIGIAMVLGAPFFALIFS
3. MNEQIDPFYEAKQEVDISVNKLQSLYNNWNNIPDKSSISAREKYNLIKEEIKYLNEDLNDLDNSVNIVKKNSYKFNISSQEIEERTQSLRIIRNLLNEITNNINNNVLSYNNNTNNDYNSVILKRQDNDLEELAESAERLHHAAITINTELKDQQKLLDELENEMDISSNEYKMDIYSIYIFVYFEFS
4. MEQRPYSLCLLRLSALGDITHVLPLVRTLQRERPQARLHWIIDTMGSKLMDGLDGIHFHVYDKHTGLRGMRALRAELTPLGHFDALLHMQVSLRANLLSAFVPAQRRIGYDHNRSKDLHGLFINERIPDNPGIHVLDAIGSFCEPLGLVQREVRWDLPVSEEARAWAWAQWNNDGRPVLMISPCSSHTHRNWQAKRYAAVAEHASAQGWRIVLCGGRSTLERQTADTILAQTQVPLLDMVGKDTLKQLPALLERADLVMTPDSGPMHIANALGKKVLGLHAASNPHRSGPYSDLRYCVNRYDAAAHKYLGKPSNMLKWGTKIESNGVMDLVTVEDAIAAFERYRADYAHH
5. MSLKIAVLDDYQDAVRKLDCFNLLQDHEVKVFNNTVKGVGQLAARVADVEALVLIRERTRVTRQLLDRLPKLKIISQTGRVSRDAGGHIDLDACTDKGVVVLEGKGSPVAPAELTWALVMAAQRRIPQYVASLKHGAWQQSGLKSTTMPPNFGIGRVLKGQTLGIFGYGKIGQLVAGYGRAFGMNVLVWGRENSKERARADGFAVAESKEALFEQSDVLSVHLRLNDETRSIITVADLTRMKPTALFVNTSRAELVEENGLVTALNRGRPGMAAIDVFETEPILQGHTLLRMENCICTPHIGYVERESYEMYFGIAFQNILDVLQGNVDSVANPTALAPALIRAEGHHHHHH
6. MEWEIVNLDMTFKVDAPVEEVFRAWTKPSLFKQWFMTTEETNKVAKNQFEINGDWEIIDVREGVEYRAIGTYIDIVSPYKLTFSFKMPQFSELEDIITVEFVDLTGATEVKFNQGIKVPFEGDTNDFEADKTEVKKEMETGYNLMFERLKQLCEG
7. LDYQRLYGTRCFSCDQFIEGEVVSALGKTYHPDCFVCAVCRLPFPPGDRVTFNGKECMCQKCSLPVSV
8. MVRANKRNEALRIESALLNKIAMLGTEKTAEAVGVDKSQISRWKRDWIPKFSMLLAVLEWGVVDDDMARLARQVAAILTNKKRPAATERSEQIQMEF

failed
failed
failed
failed
not failed
failed
not failed
not failed

----------
- protocol-notes: label from the status in PepcDB records
assay-readout: protein production

Please review the following examples before continuing.
[
  {
    "sequence-content": "MTEYVHGYSEREALRLSEQAETLEKLLHHDTVYPPGAKVLEAGCGIGAQTVILAKNNPDAEITSIDISPESLEKARENTEKNGIKNVKFLQANIFSLPFEDSSFDHIFVCFVLEHLQSPEEALKSLKKVLKPGGTITVIEGDHGSCYFHPEGKKAIEAWNCLIRVQAYMKGNSLVGRQIYPLLQESGFEKIRVEPRMVYIDSSKPELVDGFILKTIIPMVEGVKEQSLKMQIIKEEEWEKGIEELHKTAEHGGTFCYTFFKGWGTK",
    "assay-readout": "protein production",
    "result": "failed"
  },
  {
    "sequence-content": "TFGEKLLNAASTRGRLCVGIDPHESLLTSWGLPVNVDGLAEFSRACVEAFADTVALVKPQVAFYERFGSAGFAILEETIQTLRERGCLVVSDAKRGDIGSTMAGYASAWLDPASPLSSDAVTVSPYLGFHSLDPVFELAEQHGRGVFVLAATSNPEARELQDQQNADGVSISQQIVDQAAALNAPYMAQGKAGNIGVVIGATLSKPPRLSTLGGAILMPGVGAQGGTASDVDEIAGDMAHLAFPNVSRSILATGPDIAEMKNSVAKNAADFPGFP",
    "assay-readout": "protein production",
    "result": "not failed"
  },
  {
    "sequence-content": "MHILYFLFPKVTFNSFSTPIFFTLISFYSLVTFFPLLSLFIRTSIPSNLINMIIQNSIKGVFVHLDVKMRFFLDFYFLNSLICYSNYIVPFLLAHTLNLITPSVLTTVECDF",
    "assay-readout": "protein production",
    "result": "failed"
  },
  {
    "sequence-content": "PREPVVNDEMCDVCEVWTAESLFPCRVCTRVFHDGCLRRMGYIQGDSAAEVTEMAHTETGWSCHYCDNINLLLTEE",
    "assay-readout": "protein production",
    "result": "not failed"
  },
  {
    "sequence-content": "MLLTQYEKYKRGFKFDHVWPILKGIEKFANDNMMTPASSPSPGMNSIDLNMDSEDANFSLSSRPMGLKKTKLKQLLEQNDKLIKAITKGTSERNEIQRQKIEVDRMKEENKILFADLNSISDPSSRAYIENERKRILEKRAQTNQHEEDGEGSQYHGSQYRASHYQESPSHGKQVQGEPDQGEDQRSPNNQEDFTQYYNYLSGTENIFP",
    "assay-readout": "protein production",
    "result": "failed"
  }
]

Provide protein production values for the following items, in order.
1. MQFGVTKESQCHYLTDQEERLVVALPNDLENLNADAYQQLMQYGFRRSHNDVYRPHCRLCSACQSLRVVVPEFRFSKNQKRILKKNDDLTLQIKQQPEAEYSQLFSQFIEQRHADGEMYPPDPDKFWKWIDCDWLTPELLEWRNASNELMIVSVVDRTVDAMSAVYTFFHPDEEKRSPGTFAVLEMIRLAQEREVARLYLGYQIDDCKKMNYKTRFAPYERLVGNHWKKELKSHTLKAQNKD
2. MSVLPCFSLMCSLSLGEVKAVKIKPMLARLQSAMGRDDLIDQMVLLPEPQKGQTTQSINLIVGYDASPNSHTALDIACWIAHQTRLATNQQVTVQAVYVVEDSNTKNRSNILSFAKRLPTIELPPSETKKSSTSVITQPKLTGIKSYLQTDTLTPLQEADRIIWQARTLAEEWQGSFKSHLRFGCVSTELRKVAEFEAADILFLGCKSVYHPLIETLGYNFPCAVLGIPECIDE

1. failed
2. failed
